Item-by-item account of Test B rating (% disease control)
- Tested on: Botrytis cinerea
- experiment: Test B: gray mold, preventive spray on tomato seedlings
- condition details: 50 ppm (asterisk); gray mold on tomato; 100 = 100% disease control, 0 = no control
Please reply with the bare figure in % and do not write the unit itself.

Example results:
[
  {
    "compound": "OC(Cn1cncn1)(C1=NOC(c2ccccc2F)C1)c1ccccc1 (mixture of isomers)",
    "result number": 68
  },
  {
    "compound": "CC1(c2ccc(Cl)cc2)CC(C(O)(Cn2cncn2)c2ccccc2)=NO1 (single isomer, unassigned) [Compound 211]",
    "result number": 0
  }
]

Answer with reported Test B rating (% disease control) of CC1(c2ccc(Cl)cc2)CC(C(O)(Cn2cncn2)c2ccc(Cl)cc2)=NO1 (single isomer, unassigned) [Compound 213]
7

Answer with reported Test B rating (% disease control) of CC1(c2ccc(Cl)cc2)CC(C(O)(Cn2cncn2)c2ccc(Cl)cc2)=NO1 (single isomer, unassigned) [Compound 212]
28

Answer with reported Test B rating (% disease control) of CC(C)(C)C1CC(C(O)(Cn2cncn2)c2ccccc2)=NO1 (single isomer, unassigned) [Compound 124]
0

Answer with reported Test B rating (% disease control) of OC(Cn1cncn1)(C1=NOC(c2ccccc2)C1)c1ccccc1 (mixture of isomers)
51

Answer with reported Test B rating (% disease control) of OC(Cn1cncn1)(C1=NOC(c2ccc(F)cc2)C1)c1ccccc1 (mixture of isomers)
0

Answer with reported Test B rating (% disease control) of OC(Cn1cncn1)(C1=NOC(c2ccc(Cl)cc2)C1)c1ccc(Cl)cc1 (single isomer, unassigned) [Compound 120]
0

Answer with reported Test B rating (% disease control) of CC(O)(Cn1cncn1)C1=NOC(c2ccc(Cl)cc2)C1 (single isomer, unassigned) [Compound 35]
0

Answer with reported Test B rating (% disease control) of OC(Cn1cncn1)(C1=NOC(Cc2ccccc2)C1)c1ccc(Cl)cc1 (single isomer, unassigned)
92

Answer with reported Test B rating (% disease control) of OC(Cn1cncn1)(C1=NOC(c2ccc(Cl)cc2)C1)c1ccccc1 (mixture of isomers)
61

Data provenance: patent US20160242416A1
